# target desc: UniProt:O60674
# Sequence (O60674 849-1124): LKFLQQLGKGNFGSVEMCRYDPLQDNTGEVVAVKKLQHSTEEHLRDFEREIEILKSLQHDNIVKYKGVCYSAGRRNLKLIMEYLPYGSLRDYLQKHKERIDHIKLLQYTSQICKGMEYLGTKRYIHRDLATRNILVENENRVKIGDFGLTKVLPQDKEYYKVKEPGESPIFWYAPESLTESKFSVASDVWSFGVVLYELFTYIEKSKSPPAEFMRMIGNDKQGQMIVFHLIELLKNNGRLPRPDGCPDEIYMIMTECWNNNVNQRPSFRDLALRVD
# procedure details: Jak biochemical HTRF assay, JAK2
# run conditions: HTRF biochemical assay, recombinant GST-tagged catalytic domain; read-out: JAK2 IC50
readout type: IC50 (nM)
Your answer should be a plain number; it is taken to be in nM.

Example molecules with recorded IC50:
What value of measured IC50 is listed for CN1Cc2ccc(Nc3nn([C@H]4CCCC[C@@H]4C#N)c4cc[nH]c(=O)c34)cc2C1 [Example 3-64] ?
1.6

So what's the measured IC50 for this one? C[C@H](NC1CCC(n2nc(Nc3ccc(Cl)cc3)c3c(=O)[nH]ccc32)C(C#N)C1)C1CC1 (stereo in doubt) [Example 4-3]
13

Please report the recorded IC50 for CC(C)S(=N)(=O)c1ccc(Nc2nn(C3CCC[C@@H]3C#N)c3cc[nH]c(=O)c23)cc1 (single isomer, unassigned) [Example 3-109] .
0.47

Let us examine a further case.
Report IC50 for N#C[C@H]1CCCC[C@@H]1n1nc(Nc2cccc(Cn3cncn3)c2)c2c(=O)[nH]ccc21 [Example 3-50] please.
1.3

###

# target desc: JAK1 (Homo sapiens (Human))
# Sequence (P23458 875-1153): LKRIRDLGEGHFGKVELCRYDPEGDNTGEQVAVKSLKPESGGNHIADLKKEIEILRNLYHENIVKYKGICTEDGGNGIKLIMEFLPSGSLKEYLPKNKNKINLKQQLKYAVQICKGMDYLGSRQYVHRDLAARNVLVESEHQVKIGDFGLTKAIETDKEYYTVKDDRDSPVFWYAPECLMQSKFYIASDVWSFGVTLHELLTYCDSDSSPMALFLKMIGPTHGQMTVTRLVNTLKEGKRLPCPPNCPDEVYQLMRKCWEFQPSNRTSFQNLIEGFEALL
# procedure details: Jak biochemical HTRF assay, JAK1
# run conditions: HTRF biochemical assay, recombinant GST-tagged catalytic domain; read-out: JAK1 IC50
Entries and their pIC50 values follow.
In textbook form, pIC50 equals minus log to base ten of the concentration in mol/L.

Consider the reported pIC50 for these compounds:
Give pIC50 (JAK1 (Homo sapiens (Human))) of the following compound: N#C[C@H]1CCCC[C@@H]1n1nc(Nc2ccc(CNC(=O)c3cnco3)cc2)c2c(=O)[nH]ccc21
9.49

# query: pIC50 | item N#C[C@H]1CCCC[C@@H]1n1nc(Nc2cccc(CNC(=O)c3cnco3)c2)c2c(=O)[nH]ccc21 | system: JAK1 (Homo sapiens (Human))
9.51

Recall the recorded pIC50 for N#C[C@@H]1CCCC[C@H]1n1nc(Nc2ccnc(F)c2)c2c(=O)[nH]ccc21 with JAK1 (Homo sapiens (Human)) and state it.
7.74

Continuing:
Observed pIC50 on JAK1 (Homo sapiens (Human)) for CN(C)S(=O)(=O)c1ccc(Nc2nn([C@H]3CCCC[C@@H]3C#N)c3cc[nH]c(=O)c23)cc1 , please.
9.96

Under JAK1 (Homo sapiens (Human)): pIC50 value of CNS(=O)(=O)c1ccc(Nc2nn([C@H]3CCCC[C@@H]3C#N)c3cc[nH]c(=O)c23)cc1 ?
10.00

Give recorded pIC50 with JAK1 (Homo sapiens (Human)) for the following compound: C[C@H](N[C@H]1CC[C@@H](n2nc(Nc3ccc(C(F)(F)F)cc3)c3c(=O)[nH]ccc32)[C@H](C#N)C1)C1CC1
7.01

pIC50 of N#C[C@H]1C[C@H](N2CCC2)CC[C@@H]1n1nc(Nc2ccc(Cl)c(F)c2)c2c(=O)[nH]ccc21 on JAK1 (Homo sapiens (Human))?
8.77

###

Documented IC50 across a set of compounds
# target desc: JAK1 (Homo sapiens (Human))
# procedure details: Jak biochemical HTRF assay, JAK1
# run conditions: HTRF biochemical assay, recombinant GST-tagged catalytic domain; read-out: JAK1 IC50
The reply should contain only the number, in nM.

Some compounds with known IC50 results, for comparison:
Bench note: what IC50 did N#C[C@H]1CCCC[C@@H]1n1nc(Nc2ccc3c(c2)CNCC3)c2c(=O)[nH]ccc21 [Example 3-157] show?
0.45

// query IC50 value for entry CC(C)(C)N1Cc2cc(Nc3nn([C@H]4CCC[C@@H]4C#N)c4cc[nH]c(=O)c34)ccc2S1(=O)=O [Example 3-100]
0.043

I'd like to know its IC50. The compound in question is CN(C)[C@@H]1CC[C@H](n2nc(Nc3ccc(OC(F)(F)F)cc3)c3c(=O)[nH]ccc32)[C@@H](C#N)C1 [Example 5-25]
0.96

Consider the compound N#C[C@H]1CCCC[C@@H]1n1nc(Nc2ccc3c(c2)CC2(CC2)C3(O)C(F)(F)F)c2c(=O)[nH]ccc21 (single isomer, unassigned) [Example 3-124] and give its measured IC50.
0.23

I am curious: what IC50 value has been reported for CC1c2cc(Nc3nn([C@H]4CCCC[C@@H]4C#N)c4cc[nH]c(=O)c34)ccc2S(=O)(=O)N1CC(F)(F)F (single isomer, unassigned) [Example 3-129] ?
1.1

Look up IC50: N#C[C@H]1CCCC[C@@H]1n1nc(Nc2ccc(S(=O)(=O)NC3CCCCC3)cc2)c2c(=O)[nH]ccc21 [Example 3-22]
0.4

Next compound, please.
What does the record list as IC50 for CC(C)(C)NS(=O)(=O)c1ccc(Nc2nn([C@H]3CCCC[C@@H]3C#N)c3cc[nH]c(=O)c23)cc1 [Example 3-140] ?
0.17
